Values compiled from patent US20180230233A1.

# Target of assay: T1, recombinant His-tagged human tryptase beta 1 monomer (human, UniProt Q15661 31-275)
# T1 construct: also called His6-tagged tryptase monomer; human tryptase b1 monomer
# T1 sequence (Q15661 other isoform, or with tags, fused parts or gaps): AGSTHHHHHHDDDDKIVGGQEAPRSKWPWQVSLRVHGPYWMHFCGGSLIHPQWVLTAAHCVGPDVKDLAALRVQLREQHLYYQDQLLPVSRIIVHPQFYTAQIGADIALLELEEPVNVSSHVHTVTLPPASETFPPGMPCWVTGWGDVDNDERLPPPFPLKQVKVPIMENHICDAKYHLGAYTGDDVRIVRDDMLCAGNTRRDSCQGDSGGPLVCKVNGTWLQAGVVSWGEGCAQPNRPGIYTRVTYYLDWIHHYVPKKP
# Assay comment: SPR (BIAcore T200); IgG1 captured by anti-human Fc, His-tagged monomer injected
# Experimental: The assay can use a BIAcore® T200 or an equivalent device. […] Each sample is analyzed with 3 min association and 10 min dissociation. […] In this experiment, all the humanized variants were expressed as IgG by transient transfection of 293 cells. […] The affinity of each variant for recombinant His-tagged human tryptase beta 1 monomer (SEQ ID NO: 128) was determined by SPR analysis using a BIAcore® T200. […] Each sample was analyzed with 3 min association and 10 min dissociation. […]
Metric name: Kd (nM)
Form entry: value (nM) — number only.

Here are 3 binders together with their reported answers.
# Binder, Unit, Reported value
records = [
    ("hu31A.v14 IgG1 (antibody, V domains shown) VH: EVQLVESGGGLVQPGGSLRLSCAASGFTFSDYGMVWVRQAPGKGLEWVAFISSGSSTVYYADTMKGRFTISRDNSKNTLYLQMNSLRAEDTAVVYCTRRDNYDWYFDVWGQGTLVTVSS VL: DIQMTQSPSSLSASVGDRVTITCSASSSVTYMYWYQQKPGKSPKPWIYRTSDLASGVPSRFSGSGSGTDFTLTISSLQPEDFATYYCQHYHSYPLTFGQGTKVEIK", "nM", 1.34),
    ("huE104.v10 IgG1 (chimeric light chain) (antibody, V domains shown) VH: EVQLVESGPGLVKPSETLSLTCTVSRFSLIGYAITWIRQPPGKGLEWIGGISSAATTFYSSWAKSRVTISRDTSKNQVSLKLSSVTAADTAVYYCARDPRGYGAALDRLDLWGQGTLVTVSS VL: AAVLTQTPASVSAAVGGTVSISCQSIKSVYNNRLGWYQQKPGQPPKLLIYETSILTSGVPSRFKGSGSETQFTLTISDVQADDAATYFCAGGFDRSGDTTFGGGTEVVVK", "nM", 0.26),
    ("hu31A.v15 IgG1 (antibody, V domains shown) VH: EVQLVESGGGLVQPGGSLRLSCAASGFTFSDYGMVWVRQAPGKGLEWVAFISSGSSTVYYADTMKGRFTISRDNSKNTLYLQMNSLRAEDTAVVYCTRRDNYDWYFDVWGQGTLVTVSS VL: DIQLTQSPSSLSASVGDRVTITCSASSSVTYMYWYQQKPGKSPKPWIYRTSDLASGVPSRFSGSGSGTDYTLTISSLQPEDFATYYCQHYHSYPLTFGQGTKVEIK", "nM", 1.32),
]

Please find the next binder below.
Query: Using the record for hu31A.v10 IgG1 (antibody, V domains shown, also called v10 (of hu31A)) VH: EVQLVESGGGLVQPGGSLRLSCAASGFTFSDYGMVWVRQAPGKGLEWVAFISSGSSTVYYADTMKGRFTISRDNSKNTLYLQMNSLRAEDTAVYYCTRRNYDDWYFDVWGQGTLVTVSS VL: DIQMTQSPSSLSASVGDRVTITCSASSSVTYMYWYQQKPGKAPKLLIYRTSDLASGVPSRFSGSGSGTDFTLTISSLQPEDFATYYCQHYHSYPLTFGQGTKVEIK , report its Kd.
Result: 1.19
